From: patent US20060228350A1

Target: T1, Human EphA2-Fc fusion protein (human EphA2 fused with the Fc portion of a human IgG1) (human, UniProt P29317 24-534, limits assumed)
T1 construct: also called biotinylated human EphA2-Fc; not shown: Fc portion of a human IgG1
T1 sequence (P29317 24-534 limits assumed): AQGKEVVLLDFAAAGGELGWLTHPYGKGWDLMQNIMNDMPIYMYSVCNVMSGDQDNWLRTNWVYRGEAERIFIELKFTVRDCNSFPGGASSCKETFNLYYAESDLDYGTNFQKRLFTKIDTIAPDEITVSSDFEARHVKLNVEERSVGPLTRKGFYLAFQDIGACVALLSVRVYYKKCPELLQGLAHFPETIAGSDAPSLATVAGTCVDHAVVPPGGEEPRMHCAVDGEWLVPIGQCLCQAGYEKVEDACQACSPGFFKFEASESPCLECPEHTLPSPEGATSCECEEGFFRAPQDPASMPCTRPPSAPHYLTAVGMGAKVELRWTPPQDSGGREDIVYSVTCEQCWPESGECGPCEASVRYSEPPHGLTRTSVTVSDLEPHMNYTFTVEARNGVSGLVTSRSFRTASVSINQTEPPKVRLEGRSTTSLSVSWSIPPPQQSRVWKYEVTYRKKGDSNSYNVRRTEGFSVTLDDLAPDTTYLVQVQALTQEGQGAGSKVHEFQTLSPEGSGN
Experiment: SPR (BIAcore 3000), EphA2-Fc coupled to CM5 chip, IgG in solution, koff/kon
Experimental: IgGs were diluted in 0.01 M HEPES pH 7.4 containing 0.15 M NaCl, 3 mM EDTA and 0.005% P20. All subsequent dilutions were made in the same buffer. All binding experiments were performed at 25° C. with IgG concentrations typically ranging from 100 nM to 0.2 nM at a flow rate of 75 μL/min; data were collected for approximately 25 min and one 1-min pulse of 1 M NaCl, 50 mM NaOH was used to regenerate the surfaces. […]
PARAMETER MEASURED: Kd (nM)

• VH-6H11/VL-8G7 (humanized) full length human IgG1 (antibody, V domains shown, Human IgG1 / human kappa, expressed in HEK 293 cells) VH: EVQLVESGGGLVQPGGSLRLSCAASGFTFSDYSMNWVRQAPGKGLEWVAFIRNKANDYTTEYSASVKGRFTISRDNSKNTLYLQMNSLRAEDTAMYYCARYPRYHAMDSWGQGTLVTVSS VL: EIVLTQSPATLSVSPGERATLSCRASQSISNNLHWYQQKPGKAPKSLIYYVFQSISGVPSRFSGSGSGTDFTLTINSLEAEDAATYYCQQSNSWPLTFGGGTKVDIK = 1.9
